What solubility kinetic was measured for each of the following?
Experiment: Solubility of the compound in 0.1 M sodium phosphate buffer at pH 7.4 containing 1% DMSO by turbidity method
Conditions: 0.1 M sodium phosphate buffer with 1% DMSO
One number for each entry, in µM.

The cases that follow already have their solubility kinetic on record.
{"columns": ["Smiles record", "Endpoint value"],
 "data": [
  ["CNC(=O)c1ccc(O[C@H]2CC[C@@H](NC(=O)Nc3ccc(OC(F)(F)F)cc3)CC2)cc1", 10],
  ["O=C(O)CCCCCCCCCCCNC(=O)NC12CC3CC(CC(C3)C1)C2", 37.5],
  ["CNC(=O)c1ccc(O[C@H]2CC[C@H](NC(=O)NC34CC5CC(CC(C5)C3)C4)CC2)cc1", 50]
]}

// below: solubility kinetic requested for another compound
Problem: Return value of solubility kinetic for input COC(=O)c1ccc(C(=O)N2CCC(NC(=O)Nc3ccc(OC(F)(F)F)cc3)CC2)cc1 , no commentary.
Result: 75
